A collection of compounds and their measured Selectivity for ROCK2 over ROCK1 (IC50 ROCK1 / IC50 ROCK2)
Target: GST-tagged human ROCK2 catalytic domain 1-553 (Homo sapiens (Human))
Assay: Inhibition of Rho-associated protein kinase isoform 2 (LANCE Ultra ULight-CREBtide FRET kinase assay)
Type: biochemical
Settings: selectivity ROCK2 vs ROCK1
Description: Exemplary compounds were tested for ability to inhibit Rho-associated protein kinase isoform 1 (ROCK1) and Rho-associated protein kinase isoform 2 (ROCK2). Assay procedures and results are described below. Protein constructs were purified from a baculovirus expression system. The peptide substrate was fluorescent LANCE® Ultra ULight-CREBtide: […] […] The flurorescence resonance energy transfer (FRET) signals were read and analyzed on an Envision™ 2103 Multilabel Reader (Perkin Elmer).
Metric: Selectivity for ROCK2 over ROCK1 (IC50 ROCK1 / IC50 ROCK2)

Compound: Cn1cc(C(=O)Nc2cc(CC(=O)O)cc(-c3nnc(Nc4ccc5[nH]ncc5c4Cl)s3)c2)cn1 [Example 48R]
Recorded Value: >5
//
Compound: Clc1c(Nc2nnc(-c3cccc4[nH]c(-c5cccs5)nc34)s2)ccc2[nH]ncc12 [Example 56B]
Recorded Value: >100
//
Compound: CC(C(=O)Nc1cc(-c2nnc(Nc3ccc4[nH]ncc4c3Cl)s2)ccn1)c1ccc(F)cc1 (centres unmarked)
Recorded Value: >50
//
Compound: O=C(Nc1cccc(-c2nnc(Nc3ccc4[nH]ncc4c3)s2)c1)c1cccnc1
Recorded Value: >100
//
Compound: c1csc(-c2cncc(-c3nnc(Nc4ccc5[nH]ncc5c4)s3)c2)c1 [Example 39D]
Recorded Value: >5
//
Compound: O=C(c1ccnnc1)N1CCN(c2nnc(Nc3ccc4[nH]ncc4c3)s2)CC1
Recorded Value: >5
//
Compound: CC(C)c1cn2cccc(-c3nnc(Nc4ccc5[nH]ncc5c4Cl)s3)c2n1 [Example 52B]
Recorded Value: <5
//
Compound: O=[N+]([O-])c1cccc(-c2nnc(Nc3ccc4[nH]ncc4c3)s2)c1
Recorded Value: <5

###

Biological target: GST-tagged human ROCK2 catalytic domain 1-553 (Homo sapiens (Human))
Test: Inhibition of Rho-associated protein kinase isoform 2 (LANCE Ultra ULight-CREBtide FRET kinase assay)
Type: biochemical
Conditions: selectivity ROCK2 vs ROCK1
Protocol: Exemplary compounds were tested for ability to inhibit Rho-associated protein kinase isoform 1 (ROCK1) and Rho-associated protein kinase isoform 2 (ROCK2). Assay procedures and results are described below. Protein constructs were purified from a baculovirus expression system. The peptide substrate was fluorescent LANCE® Ultra ULight-CREBtide: […] […] The flurorescence resonance energy transfer (FRET) signals were read and analyzed on an Envision™ 2103 Multilabel Reader (Perkin Elmer).
Metric: Selectivity for ROCK2 over ROCK1 (IC50 ROCK1 / IC50 ROCK2)

Compound: Cn1cc(C(=O)Nc2ccc(-c3nnc(Nc4ccc5[nH]ncc5c4)s3)cc2)cn1
Recorded Value: <5
--
Compound: c1cc2[nH]ncc2cc1Nc1nnc(N2CCNCC2)s1
Recorded Value: <5
--
Compound: CC(=O)Nc1cc(-c2nnc(Nc3ccc4[nH]ncc4c3Cl)s2)cc(C(F)(F)F)c1 [Example 48K]
Recorded Value: >100
--
Compound: CC(=O)Nc1cc(-c2nnc(Nc3ccc4[nH]ncc4c3Cl)s2)ccc1-c1ncco1 [Example 48P]
Recorded Value: >100

###

A collection of molecules and their measured Selectivity for ROCK2 over ROCK1 (IC50 ROCK1 / IC50 ROCK2)
target: GST-tagged human ROCK2 catalytic domain 1-553 (Homo sapiens (Human), UniProt O75116); assay: Inhibition of Rho-associated protein kinase isoform 2 (LANCE Ultra ULight-CREBtide FRET kinase assay); assay type: biochemical; conditions: selectivity ROCK2 vs ROCK1
Sequence (O75116 1-553): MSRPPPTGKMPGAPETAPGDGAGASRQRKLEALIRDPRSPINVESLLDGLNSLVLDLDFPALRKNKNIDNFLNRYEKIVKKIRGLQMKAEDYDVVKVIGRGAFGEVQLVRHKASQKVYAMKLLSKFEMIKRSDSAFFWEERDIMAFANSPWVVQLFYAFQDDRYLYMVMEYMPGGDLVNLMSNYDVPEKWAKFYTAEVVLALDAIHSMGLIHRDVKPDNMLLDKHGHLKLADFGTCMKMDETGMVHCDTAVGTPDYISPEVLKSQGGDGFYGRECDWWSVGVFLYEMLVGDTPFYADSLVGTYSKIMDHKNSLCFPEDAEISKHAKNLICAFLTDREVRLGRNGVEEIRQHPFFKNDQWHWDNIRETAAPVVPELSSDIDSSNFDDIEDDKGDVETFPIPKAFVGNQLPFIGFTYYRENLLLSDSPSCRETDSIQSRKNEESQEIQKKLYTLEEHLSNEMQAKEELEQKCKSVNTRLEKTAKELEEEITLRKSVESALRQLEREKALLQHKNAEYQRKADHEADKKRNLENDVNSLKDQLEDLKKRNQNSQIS
Metric: Selectivity for ROCK2 over ROCK1 (IC50 ROCK1 / IC50 ROCK2)

Molecule: CNCc1ccc(C(=O)Nc2cccc(-c3nnc(Nc4ccc5[nH]ncc5c4)s3)c2)cn1 [Example 75K]
Recorded Value: >5
--
Molecule: Cc1cccc(-c2cccc(-c3nnc(Nc4ccc5[nH]ncc5c4Cl)s3)c2)n1 [Example 75R]
Recorded Value: >100
--
Molecule: O=C(NCC(O)CO)c1cccc(-c2nnc(Nc3ccc4[nH]ncc4c3)s2)c1 (centres unmarked) [Example A-4]
Recorded Value: <5
--
Molecule: O=C(Nc1cc(-c2nnc(Nc3ccc4[nH]ncc4c3Cl)s2)ccc1C(F)(F)F)c1cnn(CCO)c1 [Example 48M]
Recorded Value: >5
--
Molecule: O=C(O)C(F)(F)F.OCCn1ccnc1-c1cccc(-c2nnc(Nc3ccc4[nH]ncc4c3Cl)s2)c1 [Example 45A]
Recorded Value: >75
--
Molecule: COc1ccc(CC(=O)Nc2cccc(-c3nnc(Nc4ccc5[nH]ncc5c4Cl)s3)c2)cc1 [Example 35BQ]
Recorded Value: >5
--
Molecule: N[C@@H]1CCN(c2nnc(Nc3ccc4[nH]ncc4c3)s2)C1 [Example A-38]
Recorded Value: <5
--
Molecule: c1cc2[nH]ncc2cc1Nc1nnc(C2CCCNC2)s1 (centres unmarked) [Example A-33]
Recorded Value: <5
--
Molecule: Cc1coc(-c2cc(-c3nnc(Nc4ccc5[nH]ncc5c4Cl)s3)ccn2)n1 [Example 40]
Recorded Value: >5
--
Molecule: O=C(O)c1ccc(-c2cn3cccc(-c4nnc(Nc5ccc6[nH]ncc6c5Cl)s4)c3n2)cc1 [Example 50E]
Recorded Value: >100
--
Molecule: CC(=O)Nc1cc(CN2CCOCC2)cc(-c2nnc(Nc3ccc4[nH]ncc4c3Cl)s2)c1.O=C(O)C(F)(F)F [Example 48D]
Recorded Value: >5
--
Molecule: CC(=O)c1cccc(-c2nnc(Nc3ccc4[nH]ncc4c3Cl)s2)c1 [Example 35AM]
Recorded Value: >100
--
Molecule: CC(=O)Nc1ccc(C)c(-c2nnc(Nc3ccc4[nH]ncc4c3Cl)s2)c1.O=C(O)C(F)(F)F [Example 48I]
Recorded Value: >5
--
Molecule: Cn1ccnc1CC(=O)Nc1cccc(-c2nnc(Nc3ccc4[nH]ncc4c3Cl)s2)c1 [Example 35BL]
Recorded Value: >100
--
Molecule: CC(=O)Nc1cccc(-c2nnc(N(C)c3ccc4[nH]ncc4c3Cl)s2)c1 [Example 35BC]
Recorded Value: >75
--
Molecule: CC(C)NCC(=O)Nc1cncc(-c2nnc(Nc3ccc4[nH]ncc4c3)s2)c1 [Example A-2]
Recorded Value: >5
--
Molecule: c1cc2[nH]ncc2cc1Nc1nnc(C2CNCCN2)s1 (centres unmarked) [Example A-29]
Recorded Value: <5

###

Biological target: GST-tagged human ROCK1 catalytic domain 1-477 (Homo sapiens (Human), UniProt Q13464)
Sequence (Q13464 1-477): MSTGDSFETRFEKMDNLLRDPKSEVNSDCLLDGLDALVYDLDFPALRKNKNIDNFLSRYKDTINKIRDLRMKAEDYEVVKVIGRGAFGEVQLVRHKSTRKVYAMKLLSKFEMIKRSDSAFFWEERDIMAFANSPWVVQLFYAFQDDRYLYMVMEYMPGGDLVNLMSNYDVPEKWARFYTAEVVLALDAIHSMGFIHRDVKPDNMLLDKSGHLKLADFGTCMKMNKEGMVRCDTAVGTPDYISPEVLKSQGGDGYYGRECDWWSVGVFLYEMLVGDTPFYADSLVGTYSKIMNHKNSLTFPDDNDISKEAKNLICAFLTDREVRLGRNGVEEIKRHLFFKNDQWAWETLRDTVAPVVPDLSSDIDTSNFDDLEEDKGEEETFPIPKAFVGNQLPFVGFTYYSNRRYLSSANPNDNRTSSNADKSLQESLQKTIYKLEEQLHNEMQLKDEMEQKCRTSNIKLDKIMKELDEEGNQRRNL
Experiment: Inhibition of Rho-associated protein kinase isoform 1 (LANCE Ultra ULight-CREBtide FRET kinase assay)
Format: biochemical
Conditions: 30 μM was the highest concentration analyzed
Procedure: Exemplary compounds were tested for ability to inhibit Rho-associated protein kinase isoform 1 (ROCK1) and Rho-associated protein kinase isoform 2 (ROCK2). Assay procedures and results are described below. Protein constructs were purified from a baculovirus expression system. The peptide substrate was fluorescent LANCE® Ultra ULight-CREBtide: […] […] The flurorescence resonance energy transfer (FRET) signals were read and analyzed on an Envision™ 2103 Multilabel Reader (Perkin Elmer).

Molecule: Cc1cc(C(=O)Nc2cccc(-c3nnc(Nc4ccc5[nH]ncc5c4)s3)c2)no1 [Example A-40]
IC50: > 30 µM
--
Molecule: CC(=O)c1cccc(-c2nnc(Nc3ccc4[nH]ncc4c3Cl)s2)c1 [Example 35AM]
IC50: > 30 µM
--
Molecule: O=C(c1ccnnc1)N1CCN(c2nnc(Nc3ccc4[nH]ncc4c3)s2)CC1 [Example A-36]
IC50: > 30 µM
--
Molecule: CC(=O)Nc1cccc(-c2nnc(Nc3ccc4[nH]ncc4c3C(F)(F)F)s2)c1 [Example 35AL]
IC50: 1 to 15 µM
--
Molecule: COCCn1ccnc1-c1cccc(-c2nnc(Nc3ccc4[nH]ncc4c3Cl)s2)c1.O=C(O)C(F)(F)F [Example 44]
IC50: < 1 µM
--
Molecule: Cn1ccnc1CC(=O)Nc1cccc(-c2nnc(Nc3ccc4[nH]ncc4c3Cl)s2)c1 [Example 35BL]
IC50: > 30 µM
--
Molecule: CC(=O)Nc1cc(-c2nnc(Nc3ccc4[nH]ncc4c3Cl)s2)cc(C(F)(F)F)c1 [Example 48K]
IC50: > 30 µM
--
Molecule: c1cc(-c2nnco2)cc(-c2nnc(Nc3ccc4[nH]ncc4c3)s2)c1 [Example A-6]
IC50: > 30 µM

###

target: GST-tagged human ROCK2 catalytic domain 1-553 (Homo sapiens (Human)); assay: Inhibition of Rho-associated protein kinase isoform 2 (LANCE Ultra ULight-CREBtide FRET kinase assay); type: biochemical; conditions: 30 μM was the highest concentration analyzed

Compound: Nc1cccc(-c2nsc(Nc3ccc4[nH]ncc4c3)n2)c1 [Example 35CU]
IC50: 1 to 15 µM
--
Compound: CN(C)Cc1cc(-c2ncco2)cc(-c2nnc(Nc3ccc4[nH]ncc4c3Cl)s2)c1 [Example 75P]
IC50: < 1 µM
--
Compound: CC(=O)Nc1cccc(-c2nnc(N(C)c3ccc4[nH]ncc4c3)s2)c1 [Example 54D]
IC50: 1 to 15 µM
--
Compound: Cc1coc(-c2cc(F)cc(-c3nnc(Nc4ccc5[nH]ncc5c4Cl)s3)c2)n1 [Example 46D]
IC50: < 1 µM
--
Compound: O=C(Nc1cccc(-c2nnc(Nc3ccc4[nH]ncc4c3)s2)c1)c1cnn(CCO)c1 [Example A-20]
IC50: < 1 µM
--
Compound: CC(C)n1ccnc1-c1cccc(-c2nnc(Nc3ccc4[nH]ncc4c3Cl)s2)c1.O=C(O)C(F)(F)F [Example 46A]
IC50: < 1 µM
--
Compound: Clc1c(Nc2nnc(-c3cccc(-c4nccn4C4COC4)c3)s2)ccc2[nH]ncc12 [Example 37]
IC50: < 1 µM
--
Compound: c1cc2[nH]ncc2cc1Nc1nnc(C2CNCCN2)s1 (centres unmarked) [Example A-29]
IC50: 1 to 15 µM
--
Compound: Nc1nc(-c2nnc(Nc3ccc4[nH]ncc4c3Cl)s2)c[nH]1 [Example 75W]
IC50: < 1 µM
--
Compound: O=C(O)COc1cccc(-c2nnc(Nc3ccc4[nH]ncc4c3)s2)c1 [Example 35CO]
IC50: 1 to 15 µM
--
Compound: Cc1coc(-c2cccc(-c3nnc(Nc4ccc5[nH]ncc5c4Cl)s3)c2)n1 [Example 46C]
IC50: < 1 µM
--
Compound: O=C(O)C(F)(F)F.OCc1cc(-c2ncco2)cc(-c2nnc(Nc3ccc4[nH]ncc4c3Cl)s2)c1 [Example 41C]
IC50: < 1 µM
--
Compound: Nc1ccnc(-c2nnc(Nc3ccc4[nH]ncc4c3)s2)c1.O=C(O)C(F)(F)F [Example 35CT]
IC50: < 1 µM
--
Compound: CN1C(=O)Cc2c(-c3nnc(Nc4ccc5[nH]ncc5c4Cl)s3)cccc21.O=C(O)C(F)(F)F [Example 43]
IC50: < 1 µM
--
Compound: CC(C)NC(=O)COc1cccc(-c2nnc(Nc3ccc4[nH]ncc4c3)s2)c1 [Example A-23]
IC50: < 1 µM
--
Compound: O=C(Nc1cncc(-c2nnc(Nc3ccc4[nH]ncc4c3)s2)c1)c1c[nH]cn1 [Example A-37]
IC50: < 1 µM
--
Compound: Cn1c(C2CC2)nc2c(-c3nnc(Nc4ccc5[nH]ncc5c4)s3)cccc21 [Example 56G]
IC50: < 1 µM
